- Measurement Target: HIV-1 Env of isolate MGRM-F1-020 (subtype F) (HIV-1)
- Procedure Summary: cell-based or functional assay
Observable: IC50 (neutralization) (µg/mL)
Just the number in µg/mL, nothing appended.

Lookup: Given PGT-135 (antibody, V domains shown) VH: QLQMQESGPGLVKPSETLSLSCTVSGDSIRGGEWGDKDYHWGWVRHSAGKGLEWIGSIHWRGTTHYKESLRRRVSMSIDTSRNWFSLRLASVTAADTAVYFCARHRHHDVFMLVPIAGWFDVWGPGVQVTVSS VL: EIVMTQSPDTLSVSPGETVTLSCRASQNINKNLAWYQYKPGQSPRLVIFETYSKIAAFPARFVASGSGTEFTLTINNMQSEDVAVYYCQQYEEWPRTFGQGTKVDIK , state its recorded IC50 (neutralization).
Found: 0.168

Ref: patent US20160264649A1
